experiment_description: Activity of Beta-lactamase OXA-1 expressed in Escherichia coli BL21 (DE3)
measured_property: kcat (s⁻¹)
Lab book: enter the figure in s⁻¹, no units written.

Study these solved cases before continuing.
molecule: O=C(Cc1cccs1)N[C@@H]1C(=O)N2C(C(=O)[O-])=C(C[n+]3ccccc3)CS[C@H]12
kcat, s⁻¹: 16
//
molecule: Cc1onc(-c2ccccc2)c1C(=O)N[C@@H]1C(=O)N2[C@@H]1SC(C)(C)[C@@H]2C(=O)O
kcat, s⁻¹: 577
//
molecule: O=C(Cc1cccs1)N[C@@H]1C(=O)N2C(C(=O)O)=C(/C=C/c3ccc([N+](=O)[O-])cc3[N+](=O)[O-])CS[C@H]12
kcat, s⁻¹: 94

Lookup: Given the compound CC1(C)S[C@@H]2[C@H](NC(=O)[C@H](N)c3ccccc3)C(=O)N2[C@H]1C(=O)O , what is its reported kcat?
Found: 357

Data origin: ChEMBL document CHEMBL1255401
